Molecular target: full length MPS1 (Homo sapiens)
Sequence (P33981 whole entry): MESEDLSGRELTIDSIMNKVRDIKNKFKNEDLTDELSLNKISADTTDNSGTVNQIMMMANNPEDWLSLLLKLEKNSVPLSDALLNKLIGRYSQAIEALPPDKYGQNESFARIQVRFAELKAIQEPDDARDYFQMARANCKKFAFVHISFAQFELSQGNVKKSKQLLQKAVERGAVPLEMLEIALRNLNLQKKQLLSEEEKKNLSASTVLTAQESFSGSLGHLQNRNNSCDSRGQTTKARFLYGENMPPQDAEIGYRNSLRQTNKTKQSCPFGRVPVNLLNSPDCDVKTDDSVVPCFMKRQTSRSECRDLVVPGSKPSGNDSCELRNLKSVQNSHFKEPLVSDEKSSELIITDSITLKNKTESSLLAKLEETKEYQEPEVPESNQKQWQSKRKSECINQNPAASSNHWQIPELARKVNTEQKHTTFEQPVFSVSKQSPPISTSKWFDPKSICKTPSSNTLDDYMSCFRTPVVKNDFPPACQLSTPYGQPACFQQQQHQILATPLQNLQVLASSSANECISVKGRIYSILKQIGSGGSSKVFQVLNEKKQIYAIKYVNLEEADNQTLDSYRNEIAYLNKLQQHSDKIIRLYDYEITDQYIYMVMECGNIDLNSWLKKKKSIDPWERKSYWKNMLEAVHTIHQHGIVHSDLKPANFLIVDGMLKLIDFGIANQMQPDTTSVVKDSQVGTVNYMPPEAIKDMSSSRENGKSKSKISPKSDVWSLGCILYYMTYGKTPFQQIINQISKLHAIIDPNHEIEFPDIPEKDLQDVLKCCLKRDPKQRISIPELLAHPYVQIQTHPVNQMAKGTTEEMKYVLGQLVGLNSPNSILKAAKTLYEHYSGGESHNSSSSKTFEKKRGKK
pIC50: −log10 of the molar value.
Recorded pIC50, one value per entry.
measuredQuantity: pIC50

{"molecule": "Cc1ncc(-c2ccc(Nc3cc4c(cn3)cc(-c3cnn(C)c3)n4C(=O)OC3CCCC3)c(Cl)c2)n1C [Example 84]", "measuredQuantity": "pIC50", "valueReported": 8.70}
{"molecule": "COCCn1c(-c2cnn(C)c2)cc2cnc(Nc3ccc(-c4cnc(C)n4C)cc3Cl)cc21 [Example 104]", "measuredQuantity": "pIC50", "valueReported": 7.08}
{"molecule": "COc1ccc(Nc2cc3c(cn2)cc(-c2cn[nH]c2)n3C)cc1OC [Example 126]", "measuredQuantity": "pIC50", "valueReported": 7.59}
{"molecule": "CN(C)C(=O)c1ccc(Nc2cc3[nH]c(-c4cnco4)cc3cn2)c(Cl)c1 [Example 180]", "measuredQuantity": "pIC50", "valueReported": 8.30}
{"molecule": "CN(C)C(=O)c1ccc(Nc2cc3c(cn2)cc(-c2cnn(C)c2)n3-c2ccccn2)c(Cl)c1 [Example 94]", "measuredQuantity": "pIC50", "valueReported": 7.11}
{"molecule": "COc1ccc(C(=O)N(C)C)cc1Nc1cc2[nH]c(-c3cnn(C)c3)cc2cn1 [Example 114]", "measuredQuantity": "pIC50", "valueReported": 6.30}
{"molecule": "CN(C)C(=O)c1ccc(Nc2cc3c(cn2)cc(-c2cnn(C)c2)n3C2CCCC2)c(Cl)c1 [Example 73]", "measuredQuantity": "pIC50", "valueReported": 8.15}
{"molecule": "CC(C)OC(=O)n1c(-c2cnn(C)c2)cc2cnc(Nc3ccc(C(=O)N(C)C)cc3Cl)cc21 [Example 77]", "measuredQuantity": "pIC50", "valueReported": 8.22}
{"molecule": "CN(C)C(=O)c1ccc(Nc2cc3c(cn2)cc(-c2cnn(C)c2)n3C(=O)OC(C)(C)C)c(OC(F)(F)F)c1 [Example 3]", "measuredQuantity": "pIC50", "valueReported": 8.22}
{"molecule": "CN(C)C(=O)c1cc(Cl)c(Nc2cc3c(cn2)cc(-c2cnn(C)c2)n3C(=O)OC(C)(C)C)c(Cl)c1 [Example 13]", "measuredQuantity": "pIC50", "valueReported": 7.70}
{"molecule": "Cn1cc(-c2cc3cnc(Nc4ccc(C(=O)N5CCCC5)cc4Cl)cc3n2C(=O)OC(C)(C)C)cn1 [Example 40]", "measuredQuantity": "pIC50", "valueReported": 8.40}
{"molecule": "COc1ccc(Nc2cc3[nH]c(-c4cnn(Cc5cc(C)on5)c4)cc3cn2)c(OC)c1 [Example 173]", "measuredQuantity": "pIC50", "valueReported": 6.68}
{"molecule": "CN(C)C(=O)c1ccc(Nc2cc3[nH]c(-c4cn[nH]c4)cc3cn2)cc1 [Example 168]", "measuredQuantity": "pIC50", "valueReported": 7.96}
{"molecule": "Cn1cc(-c2[nH]c3cc(Nc4ccc(S(C)(=O)=O)cc4Cl)ncc3c2Cl)cn1 [Example 197]", "measuredQuantity": "pIC50", "valueReported": 7.16}
{"molecule": "Cn1cc(-c2cc3cnc(Nc4ccc(-c5ccnn5C)cc4Cl)cc3[nH]2)cn1 [Example 149]", "measuredQuantity": "pIC50", "valueReported": 7.66}
{"molecule": "Cn1cncc1-c1ccc(Nc2cc3c(cn2)cc(-c2cnco2)n3C(=O)OC(C)(C)C)c(Cl)c1 [Example 91]", "measuredQuantity": "pIC50", "valueReported": 8.22}

Just for reference, patent US9371319B2 is where these values come from.
